Property: DSF huSTING (HAQ) ΔTm (° C.); scope: individual compounds
- targetDesc: human STING (HAQ) (Homo sapiens, UniProt Q86WV6, G230A/H232R/R293Q)
- Sequence (Q86WV6 whole entry G230A/H232R/R293Q, looked up): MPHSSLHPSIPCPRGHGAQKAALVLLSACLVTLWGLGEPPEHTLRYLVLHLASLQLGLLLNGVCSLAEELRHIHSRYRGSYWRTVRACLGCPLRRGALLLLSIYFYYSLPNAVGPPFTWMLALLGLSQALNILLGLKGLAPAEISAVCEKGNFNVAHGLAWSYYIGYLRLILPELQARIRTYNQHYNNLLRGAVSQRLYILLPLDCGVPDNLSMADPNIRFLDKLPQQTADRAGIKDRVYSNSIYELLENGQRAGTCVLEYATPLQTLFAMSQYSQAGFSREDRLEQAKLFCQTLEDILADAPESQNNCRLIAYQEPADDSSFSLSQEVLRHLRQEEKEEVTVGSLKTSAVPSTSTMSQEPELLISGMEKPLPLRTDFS
- experimentNotes: biochemical
- Assay type: binding
- reportedConditions: compound 100 μM; protein concentration 2 μM
- Procedure: DSF monitors thermal unfolding of protein in the presence of a fluorescent dye and is typically performed using a real-time PCR instrument. The temperature at which a protein unfolds is measured by an increase in the fluorescence of a dye with affinity for hydrophobic parts of the protein that are gradually exposed during unfolding. […] The fluorescence intensity is plotted as a function of the temperature, generating a sigmoidal curve that can be described by a two-state transition. […]
All answers are understood in °C, so give the number only.

{"columns": ["itemSmiles", "DSF huSTING (HAQ) ΔTm (° C.) / °C"],
 "data": [
  ["NC(=O)c1cc(F)c(OCc2c(C(=O)O)sc3cncc(Cl)c23)c(F)c1", 9.33],
  ["COc1nccc2sc(C(=O)O)c(COc3c(F)cc(C(N)=O)cc3CO)c12", 0.56],
  ["COc1ncnc2sc(C(=O)O)c(COc3c(F)cc(C(N)=O)cc3F)c12", 8.60]
]}

For the compound shown here, `COCc1cc(OCc2c(C(=O)O)sc3cccc(Cl)c23)ccc1C(N)=O` , give the reported DSF huSTING (HAQ) ΔTm (° C.). 5.60

---

- targetDesc: huSTING (WT) (Homo sapiens (Human), UniProt Q86WV6, H232R)
- experimentNotes: SPR (WT) 8° C.
- reportedConditions: read-out: SPR huSTING (WT) KD at 8° C.
- Sequence (Q86WV6 other isoform, or with tags, fused parts or gaps, stated change not applied): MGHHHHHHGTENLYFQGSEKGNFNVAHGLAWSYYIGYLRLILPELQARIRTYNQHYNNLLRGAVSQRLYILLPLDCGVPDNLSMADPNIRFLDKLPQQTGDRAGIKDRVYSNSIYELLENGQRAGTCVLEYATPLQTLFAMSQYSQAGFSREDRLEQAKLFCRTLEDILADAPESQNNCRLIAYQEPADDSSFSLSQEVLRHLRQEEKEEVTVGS
measuredQuantity: Kd (µM)
All answers are understood in µM, so give the number only.

For the molecule shown here, COc1ncnc2sc(C(=O)O)c(COc3c(F)cc(C(N)=O)cc3F)c12 [Example 109] , give the reported Kd. 200

---

Property: pEC50; scope: individual compounds
- targetDesc: huSTING (HAQ) (Homo sapiens (Human), UniProt Q86WV6, G230A/H232R/R293Q/R71H)
- Sequence (Q86WV6 whole entry R71H/G230A/H232R/R293Q): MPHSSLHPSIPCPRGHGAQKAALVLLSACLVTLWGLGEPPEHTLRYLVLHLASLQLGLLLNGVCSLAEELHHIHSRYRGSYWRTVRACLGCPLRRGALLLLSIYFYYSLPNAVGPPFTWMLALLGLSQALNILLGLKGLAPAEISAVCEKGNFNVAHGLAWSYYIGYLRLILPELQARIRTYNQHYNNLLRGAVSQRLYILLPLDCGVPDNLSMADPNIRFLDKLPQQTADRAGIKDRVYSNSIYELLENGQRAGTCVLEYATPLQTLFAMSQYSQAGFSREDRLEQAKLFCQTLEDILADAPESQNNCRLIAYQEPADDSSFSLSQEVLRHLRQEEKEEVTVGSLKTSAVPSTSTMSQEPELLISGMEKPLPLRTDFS
- experimentNotes: THP-1 reporter cell line assay, THP-1 STING Lucia ISG cells
- Format: cell-based
Kindly note that pEC50 refers to -log10 of the concentration in mol/L and answer with the value alone.

For the compound shown here, CCOP(=O)(COC(=O)c1sc2cccc(Cl)c2c1COc1c(F)cc(C(N)=O)cc1F)OCC [Example 143] , give the reported pEC50. 7.74

For the compound shown here, COCCOC(=O)c1sc2cccc(Cl)c2c1COc1c(F)cc(C(N)=O)cc1F [Example 158] , give the reported pEC50. 6.88

---

- targetDesc: huSTING (HAQ) (Homo sapiens (Human), UniProt Q86WV6, G230A/H232R/R293Q/R71H)
- experimentNotes: THP-1 reporter cell line assay, THP-1 STING Lucia ISG cells
- Assay type: cell-based
- reportedConditions: THP-1 STING Lucia ISG cells; 24 h; top concentration 50 μM; read-out: Cellular EC50 huSTING (HAQ)
Property: EC50; scope: individual compounds
All answers are understood in µM, so give the number only.

{"columns": ["compound", "valueUnit", "EC50"],
 "data": [
  ["CCOC(=O)c1sc2cccc(Cl)c2c1COc1c(C)cc(C(N)=O)cc1OC [Example 72]", "µM", 7.44]
]}

For the compound shown here, CCOC(=O)c1sc2cccc(C#N)c2c1COc1ccc(C(N)=O)cc1 [Example 62] , give the reported EC50. 0.95

For the compound shown here, CCOC(=O)c1sc2cccc(C)c2c1COc1ccc(C(N)=O)cc1 [Example 77] , give the reported EC50. 0.702

For the compound shown here, CCOC(=O)c1sc2cccc(C(F)(F)F)c2c1COc1ccc(C(N)=O)cc1 [Example 35] , give the reported EC50. 0.655

---

Property: pEC50; scope: individual compounds
- targetDesc: huSTING (WT) (Homo sapiens (Human), UniProt Q86WV6, H232R)
- experimentNotes: THP-1 reporter cell line assay, THP-1-Dual KI-hSTING-R232 cells
- Format: cell-based
- reportedConditions: read-out: Cellular EC50 huSTING (WT)
- Sequence (Q86WV6 whole entry H232R): as the sequence (Q86WV6 whole entry G230A/H232R/R293Q, looked up) above, with A230G, Q293R counted along it
Kindly note that pEC50 refers to -log10 of the concentration in mol/L and answer with the value alone.

Below, 3 compounds whose answers are already recorded.
{"columns": ["compound", "measuredQuantity", "endpointValue"],
 "data": [
  ["CCOC(=O)c1sc2cc(F)cc(F)c2c1COc1ccc(C(N)=O)cc1", "pEC50", 5.16],
  ["CCOC(=O)c1sc2cccc(OC)c2c1COc1ccc(C(N)=O)cc1", "pEC50", 6.05],
  ["CC(=O)OC(C)OC(=O)c1sc2cccc(Cl)c2c1COc1c(F)cc(C(N)=O)cc1F (stereo not shown)", "pEC50", 6.66]
]}

For the compound shown here, `CC(=O)N[C@H](C(=O)OCOC(=O)c1sc2cccc(Cl)c2c1COc1c(F)cc(C(N)=O)cc1F)C(C)C` , give the reported pEC50. 6.54

---

- targetDesc: huSTING (WT) (Homo sapiens (Human), UniProt Q86WV6, H232R)
- experimentNotes: THP-1 reporter cell line assay, THP-1-Dual KI-hSTING-R232 cells
- Type: cell-based
- reportedConditions: read-out: Cellular EC50 huSTING (WT)
measuredQuantity: EC50 (µM)
All answers are understood in µM, so give the number only.

{"columns": ["molecule", "valueUnit", "EC50"],
 "data": [
  ["NC(=O)c1ccc(OCc2c(C(=O)O)sc3cccc(Br)c23)cc1 [Example 22]", "µM", 41]
]}

Now look at this entry.
For the molecule shown here, COc1cccc2sc(C(=O)OC(C)C)c(COc3ccc(C(N)=O)cc3)c12 [Example 154] , give the reported EC50. 2.05

---

Property: EC50; scope: individual molecules
- targetDesc: huSTING (WT) (Homo sapiens (Human), UniProt Q86WV6, H232R)
- experimentNotes: THP-1 reporter cell line assay, THP-1-Dual KI-hSTING-R232 cells
- Format: cell-based
- reportedConditions: read-out: Cellular EC50 huSTING (WT)
All answers are understood in µM, so give the number only.

Below, 8 molecules whose answers are already recorded.
{"columns": ["molecule", "valueUnit", "endpointValue"],
 "data": [
  ["NC(=O)c1cc(F)c(OCc2c(C(=O)OCCN3CCOCC3)sc3cccc(Cl)c23)c(F)c1 [Example 137]", "µM", 0.226],
  ["CCOC(=O)c1sc2cccc(C3CC3)c2c1COc1ccc(C(N)=O)cc1 [Example 60]", "µM", 47.4],
  ["CCC(=O)OC(OC(=O)c1sc2c(F)ccc(Br)c2c1COc1c(F)cc(C(N)=O)cc1F)C(C)C (stereo not drawn) [Example 140]", "µM", 0.16],
  ["CC(=O)NCCOC(=O)c1sc2cccc(Cl)c2c1COc1c(F)cc(C(N)=O)cc1F [Example 159]", "µM", 0.325],
  ["CCOC(=O)c1sc2cccc(Cl)c2c1COc1ccc(C(N)=O)cc1 [Example 7]", "µM", 8.94],
  ["CC(C)(C)C(=O)OCOC(=O)c1sc2cccc(C3CC3)c2c1COc1c(F)cc(C(N)=O)cc1F [Example 124]", "µM", 1.43],
  ["CCOC(=O)c1sc2cccc(Cl)c2c1COc1ccc(C(N)=O)c(-c2cn[nH]c2)c1 [Example 151]", "µM", 3.46],
  ["CC(C)(C)C(=O)OCOC(=O)c1sc2cccc(Cl)c2c1COc1c(F)cc(C(N)=O)cc1F [Example 173]", "µM", 0.208]
]}

Now look at this entry.
For the molecule shown here, CCOC(=O)c1sc2c(F)ccc(Br)c2c1COc1c(F)cc(C(N)=O)cc1F [Example 116] , give the reported EC50. 0.076

---

- targetDesc: huSTING (WT) (Homo sapiens (Human), UniProt Q86WV6, H232R)
- experimentNotes: THP-1 reporter cell line assay, THP-1-Dual KI-hSTING-R232 cells
- Type: cell-based
- reportedConditions: read-out: Cellular EC50 huSTING (WT)
pEC50: −log10 of the molar value. Where a name gives a salt, the structure may show the parent alone.
Property: pEC50; scope: individual compounds

Below, 7 compounds whose answers are already recorded.
{"columns": ["compound", "pEC50"],
 "data": [
  ["CC(C)[C@H](N)C(=O)OCOC(=O)c1sc2cccc(Cl)c2c1COc1c(F)cc(C(N)=O)cc1F [Example 152, trifluoroacetate salt]", 4.27],
  ["CCOC(=O)c1sc2cccc(Cl)c2c1COc1ccc(C(N)=O)cc1Cl", 5.32],
  ["CC(C)OC(=O)c1sc2cccc(F)c2c1COc1ccc(C(N)=O)cc1", "< 4.30"],
  ["NC(=O)c1ccc(OCc2c(C(=O)O)sc3ccc(F)c(Cl)c23)cc1", "< 4.30"],
  ["CCOC(=O)c1sc2cccc(F)c2c1COc1c(F)cc(C(N)=O)cc1Br", "< 4.30"],
  ["CCOC(=O)c1sc2ccc(F)c(Cl)c2c1COc1ccc(C(N)=O)cc1", "< 4.30"],
  ["CCOC(=O)c1sc2cccc(C(F)(F)F)c2c1COc1ccc(C(N)=O)cc1", 5.89]
]}

Any idea what pEC50 came out for `CCOC(=O)c1sc2cccc(Cl)c2c1CNc1ccc(C(N)=O)cc1` on huSTING (WT) (Homo sapiens (Human), UniProt Q86WV6, H232R)? < 4.30
